Value source: ChEMBL document CHEMBL4342485

- Protocol Details: Volume of distribution at steady state in cynomolgus monkey at 1 mg/kg, iv or po
- Type: ADME, organism-based, Macaca fascicularis
- Condition Notes: in vivo, read-out: Vdss

Cpd Smiles: CC(C)(O)[C@H](F)CN1Cc2cc(NC(=O)c3cnn4cccnc34)c(N3CCOCC3)cc2C1=O
Vd: 3.7 L/kg

====

- Protocol Details: Half life in rat at 1 mg/kg, iv or po
- Format: ADME, organism-based
- Condition Notes: in vivo
Measurement Name: half-life

Cpd Smiles: CC(C)(O)[C@H](F)CN1Cc2cc(NC(=O)c3cnn4cccnc34)c(N3CCOCC3)cc2C1=O
Experimental Value: 96 min
